Items are presented alongside their recorded remaining at 8 h, 1 mmol/l.
ASSAYED_SYSTEM: DPP IV (Sus scrofa)
Construct: purchased Sigma (Poole, Dorset, UK)
Sequence (P22411 whole entry): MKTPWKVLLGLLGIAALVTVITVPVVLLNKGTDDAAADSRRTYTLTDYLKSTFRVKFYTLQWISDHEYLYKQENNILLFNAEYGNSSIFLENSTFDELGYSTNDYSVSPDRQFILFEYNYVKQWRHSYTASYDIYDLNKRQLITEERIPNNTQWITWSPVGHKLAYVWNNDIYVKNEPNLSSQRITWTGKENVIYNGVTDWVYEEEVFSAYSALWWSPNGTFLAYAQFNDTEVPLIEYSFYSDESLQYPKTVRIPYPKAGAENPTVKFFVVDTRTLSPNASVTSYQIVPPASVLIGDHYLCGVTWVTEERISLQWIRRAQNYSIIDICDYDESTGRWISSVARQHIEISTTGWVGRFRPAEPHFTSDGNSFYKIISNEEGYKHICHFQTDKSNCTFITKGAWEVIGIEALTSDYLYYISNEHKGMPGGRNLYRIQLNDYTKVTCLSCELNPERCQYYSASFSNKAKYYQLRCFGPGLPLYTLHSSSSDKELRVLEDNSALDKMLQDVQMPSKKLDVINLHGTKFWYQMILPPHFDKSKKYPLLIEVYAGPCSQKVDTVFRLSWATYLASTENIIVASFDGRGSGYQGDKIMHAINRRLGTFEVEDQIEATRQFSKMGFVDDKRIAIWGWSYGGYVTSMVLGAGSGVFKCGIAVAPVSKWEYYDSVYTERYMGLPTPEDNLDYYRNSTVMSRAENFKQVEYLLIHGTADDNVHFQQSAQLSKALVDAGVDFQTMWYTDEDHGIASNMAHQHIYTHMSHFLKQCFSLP
MEASUREMENT_DESCRIPTION: Degradation of GIP and analogues by DPP IV (HPLC)
Assay type: in vitro ADME
CONDITION_DETAILS: isolated enzyme dpp iv, pH 7.8; incubation with DPP IV, 8 h; read-out: % Intact peptide remaining after time (h)
Starred links: 1 amine or outer side, 2 acyl side, 3 side chain; linkers in the order of their positions; H or OH if unused. Non-standard residues stand in square brackets, D forms with d. No end group written: not given here. X1 = O=C([C@H](Cc1ccc(O)cc1)N(C[C@H](O)[C@@H](O)[C@H](O)[C@H](O)CO)[*:1])[*:2]
Please give a number only; it is taken to be in %.

{"columns": ["SUBSTANCE", "UNIT_ABBREV", "remaining at 8 h, 1 mmol/l"],
 "data": [
  ["YSEGTFISDYSIAMDKIHQQDFVNWLLAQKGKKNDWKHNITQ-OH [GIP (Ser^2)]", "%", 32]
]}

Please examine the following record next.
remaining at 8 h, 1 mmol/l measured on [X1]AEGTFISDYSIAMDKIHQQDFVNWLLAQKGKKNDWKHNITQ [Glycated GIP] = 100

* * *

ASSAYED_SYSTEM: DPP IV (Sus scrofa)
Construct: purchased Sigma (Poole, Dorset, UK)
MEASUREMENT_DESCRIPTION: Degradation of GIP and analogues by DPP IV (HPLC)
Assay type: in vitro ADME
CONDITION_DETAILS: isolated enzyme dpp iv, pH 7.8; incubation with DPP IV, 24 h; read-out: % Intact peptide remaining after time (h)
Starred links: 1 amine or outer side, 2 acyl side, 3 side chain; linkers in the order of their positions; H or OH if unused. Non-standard residues stand in square brackets, D forms with d. No end group written: not given here. X1 = O=C([C@H](Cc1ccc(O)cc1)N(C[C@H](O)[C@@H](O)[C@H](O)[C@H](O)CO)[*:1])[*:2]
QUANTITY_MEASURED: remaining at 24 h, 1 mmol/l (%)
Please give a number only; it is taken to be in %.

{"columns": ["SUBSTANCE", "remaining at 24 h, 1 mmol/l, %"],
 "data": [
  ["[X1]AEGTFISDYSIAMDKIHQQDFVNWLLAQKGKKNDWKHNITQ [Glycated GIP]", 100]
]}

Please examine the following record next.
Note to self: remaining at 24 h, 1 mmol/l of YSEGTFISDYSIAMDKIHQQDFVNWLLAQKGKKNDWKHNITQ-OH [GIP (Ser^2)] with DPP IV (Sus scrofa) was 0
